target: GluD2-T649A (Rattus norvegicus, UniProt Q63226, T649A); construct: expressed in transfected cells; host or cells: Xenopus laevis oocytes injected with cRNA; experiment: TEVC of constitutive current, Xenopus oocytes expressing GluD2-T649A; format: cell-based; details: read-out: Ca2+ potentiation EC50
Sequence (Q63226 24-1007 T649A): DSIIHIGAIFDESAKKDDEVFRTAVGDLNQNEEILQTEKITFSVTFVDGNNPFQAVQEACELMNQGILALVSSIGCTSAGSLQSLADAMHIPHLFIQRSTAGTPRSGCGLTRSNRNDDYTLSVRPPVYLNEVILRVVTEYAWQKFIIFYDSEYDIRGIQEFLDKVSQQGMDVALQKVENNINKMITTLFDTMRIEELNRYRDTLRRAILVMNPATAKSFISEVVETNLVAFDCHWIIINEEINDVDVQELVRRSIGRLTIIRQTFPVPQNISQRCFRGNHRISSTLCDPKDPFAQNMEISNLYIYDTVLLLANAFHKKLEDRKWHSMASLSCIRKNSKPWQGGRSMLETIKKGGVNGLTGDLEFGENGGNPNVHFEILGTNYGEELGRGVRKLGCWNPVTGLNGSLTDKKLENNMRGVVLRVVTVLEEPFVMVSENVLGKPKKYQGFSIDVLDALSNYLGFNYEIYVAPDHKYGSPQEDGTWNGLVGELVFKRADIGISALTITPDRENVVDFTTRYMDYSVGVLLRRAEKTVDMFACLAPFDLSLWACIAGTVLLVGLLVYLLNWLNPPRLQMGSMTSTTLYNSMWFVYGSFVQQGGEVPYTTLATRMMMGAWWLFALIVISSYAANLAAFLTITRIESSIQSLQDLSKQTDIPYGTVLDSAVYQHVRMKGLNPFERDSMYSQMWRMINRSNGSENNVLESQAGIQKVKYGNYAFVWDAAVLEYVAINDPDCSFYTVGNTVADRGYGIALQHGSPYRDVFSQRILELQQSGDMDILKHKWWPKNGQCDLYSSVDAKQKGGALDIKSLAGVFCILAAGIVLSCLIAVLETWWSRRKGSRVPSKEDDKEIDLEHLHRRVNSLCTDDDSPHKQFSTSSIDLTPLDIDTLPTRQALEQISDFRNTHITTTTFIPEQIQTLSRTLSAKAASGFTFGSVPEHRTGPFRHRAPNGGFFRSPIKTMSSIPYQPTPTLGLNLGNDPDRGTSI

{"compound": "[Ca+2] [Ca^2+]", "EC50": "100 to 400 µM"}

====

target: GluD2-T649A (Rattus norvegicus, UniProt Q63226, T649A); construct: expressed in transfected cells; host or cells: Xenopus laevis oocytes injected with cRNA; experiment: TEVC of constitutive current, Xenopus oocytes expressing GluD2-T649A; format: cell-based; conditions: inhibition of constitutive channels; read-out: Pentamidine IC50
pIC50: −log10 of the molar value.
readoutLabel: pIC50

{"compoundStructureString": "N=C(N)c1ccc(OCCCCCOc2ccc(C(=N)N)cc2)cc1", "dataValue": 7.43}
